Task for the reader: assign each of the following compounds its reported MIC.
# System: Enterococcus faecium
# assay: in vitro bacteriostatic activity, agar dilution MIC
# Assay type: cell-based
# assay_setup: Enterococcus faecium, Enterococcus faecium 12-9; read-out: MIC
Structures can show the parent of a compound that is named as a salt.

Past entries and their recorded results:
{"columns": ["compound", "MIC"],
 "data": [
  ["C[C@H]1CC[C@@]2(O)C(C)(C)[C@@H]3CC[C@@]2(C)[C@H]1C3 (stereo in doubt)", "64 mg/L"],
  ["CC[C@H]1OC(=O)[C@H](C)[C@@H](O[C@H]2C[C@@](C)(OC)[C@@H](O)[C@H](C)O2)[C@H](C)[C@@H](O[C@@H]2O[C@H](C)C[C@H](N(C)C)[C@H]2O)[C@](C)(O)C[C@@H](C)CN(C)[C@H](C)[C@@H](O)[C@]1(C)O", "> 128 mg/L"]
]}

List MIC for every entry below, keeping the order given.
1. CC1(C)S[C@@H]2[C@H](NC(=O)Cc3ccccc3)C(=O)N2[C@H]1C(=O)O [penicillin, Benzylpenicillin sodium]
2. C[C@H]1COc2c(N3CCN(C)CC3)c(F)cc3c(=O)c(C(=O)O)cn1c23 [levofloxacin, Levofloxacin hydrochloride]

Result:
128 mg/L
32 mg/L

###

# System: Staphylococcus aureus MSSA
# assay: in vitro bacteriostatic activity, agar dilution MIC
# Format: cell-based
# assay_setup: Staphylococcus aureus, MSSA, Staphylococcus aureus MSSA 12-16; read-out: MIC
Counter-ions that a name gives are not always drawn.
Give measured MIC for each item. Keep answers brief.
Answers are plain numbers, in µg/mL.

Example results:
{"columns": ["compound", "readout_unit", "MIC"],
 "data": [
  ["C[C@H]1CC[C@@]2(O)C(C)(C)[C@@H]3CC[C@@]2(C)[C@H]1C3 (stereo in doubt)", "µg/mL", 64],
  ["CC1(C)S[C@@H]2[C@H](NC(=O)Cc3ccccc3)C(=O)N2[C@H]1C(=O)O [penicillin, Benzylpenicillin sodium]", "µg/mL", 0.5]
]}

Request: Form field: reported MIC of C[C@H]1COc2c(N3CCN(C)CC3)c(F)cc3c(=O)c(C(=O)O)cn1c23 [levofloxacin, Levofloxacin hydrochloride]
Result: 0.06

###

# Tested on: Enterococcus faecalis
# assay: in vitro bacteriostatic activity, agar dilution MIC
# Assay type: cell-based
# assay_setup: Enterococcus faecalis, Enterococcus faecalis 12-14; read-out: MIC
Structures can show the parent of a compound that is named as a salt.
Consider the following molecules; for each one, report its MIC.
Answers are plain numbers, in µg/mL.

{"columns": ["molecule", "readout_unit", "result_value"],
 "data": [
  ["CC1(C)S[C@@H]2[C@H](NC(=O)Cc3ccccc3)C(=O)N2[C@H]1C(=O)O [penicillin, Benzylpenicillin sodium]", "µg/mL", 1],
  ["C[C@H]1COc2c(N3CCN(C)CC3)c(F)cc3c(=O)c(C(=O)O)cn1c23 [levofloxacin, Levofloxacin hydrochloride]", "µg/mL", 64],
  ["C[C@H]1CC[C@@]2(O)C(C)(C)[C@@H]3CC[C@@]2(C)[C@H]1C3 (stereo in doubt) [PC]", "µg/mL", 64]
]}

Now consider a different molecule.
Request: Requested read-out: MIC. Entry: CC[C@H]1OC(=O)[C@H](C)[C@@H](O[C@H]2C[C@@](C)(OC)[C@@H](O)[C@H](C)O2)[C@H](C)[C@@H](O[C@@H]2O[C@H](C)C[C@H](N(C)C)[C@H]2O)[C@](C)(O)C[C@@H](C)CN(C)[C@H](C)[C@@H](O)[C@]1(C)O [azithromycin, Azithromycin]
Result: 1

###

# Tested on: Enterococcus faecium
# assay: in vitro bacteriostatic activity, agar dilution MIC
# Assay type: cell-based
# assay_setup: Enterococcus faecium, Enterococcus faecium 12-8; read-out: MIC
Where a name gives a salt, the structure may show the parent alone.
Record form. Attribute: MIC. Fill in for each entry.
One number for each entry, in µg/mL.

Would you be so kind as to report MIC for each listed record?
1. CC[C@H]1OC(=O)[C@H](C)[C@@H](O[C@H]2C[C@@](C)(OC)[C@@H](O)[C@H](C)O2)[C@H](C)[C@@H](O[C@@H]2O[C@H](C)C[C@H](N(C)C)[C@H]2O)[C@](C)(O)C[C@@H](C)CN(C)[C@H](C)[C@@H](O)[C@]1(C)O [azithromycin, Azithromycin]
2. C[C@H]1COc2c(N3CCN(C)CC3)c(F)cc3c(=O)c(C(=O)O)cn1c23 [levofloxacin, Levofloxacin hydrochloride]
3. C[C@H]1CC[C@@]2(O)C(C)(C)[C@@H]3CC[C@@]2(C)[C@H]1C3 (stereo in doubt) [PC]

Result:
[1, 64, 64]

###

# Test system: Enterococcus faecium
# assay: in vitro bacteriostatic activity, agar dilution MIC
# Assay type: cell-based
# assay_setup: Enterococcus faecium, Enterococcus faecium 12-15; read-out: MIC
Counter-ions that a name gives are not always drawn.
Give measured MIC for each item. Keep answers brief.

Please review the following examples before continuing.
{"columns": ["compound", "MIC"],
 "data": [
  ["C[C@H]1COc2c(N3CCN(C)CC3)c(F)cc3c(=O)c(C(=O)O)cn1c23 [levofloxacin, Levofloxacin hydrochloride]", "32 µg/mL"],
  ["CC1(C)S[C@@H]2[C@H](NC(=O)Cc3ccccc3)C(=O)N2[C@H]1C(=O)O [penicillin, Benzylpenicillin sodium]", "128 µg/mL"]
]}

Please give MIC, item by item, for the list that follows.
1. CC[C@H]1OC(=O)[C@H](C)[C@@H](O[C@H]2C[C@@](C)(OC)[C@@H](O)[C@H](C)O2)[C@H](C)[C@@H](O[C@@H]2O[C@H](C)C[C@H](N(C)C)[C@H]2O)[C@](C)(O)C[C@@H](C)CN(C)[C@H](C)[C@@H](O)[C@]1(C)O
2. C[C@H]1CC[C@@]2(O)C(C)(C)[C@@H]3CC[C@@]2(C)[C@H]1C3 (stereo in doubt)

Result:
> 128 µg/mL
32 µg/mL

###

# System: Staphylococcus aureus MSSA
# assay: in vitro bacteriostatic activity, agar dilution MIC
# Type: cell-based
# assay_setup: Staphylococcus aureus, MSSA, Staphylococcus aureus MSSA 12-17; read-out: MIC
Counter-ions that a name gives are not always drawn.
Exercise: state measured MIC for each of the compounds provided.

{"columns": ["compound", "MIC"],
 "data": [
  ["CC[C@H]1OC(=O)[C@H](C)[C@@H](O[C@H]2C[C@@](C)(OC)[C@@H](O)[C@H](C)O2)[C@H](C)[C@@H](O[C@@H]2O[C@H](C)C[C@H](N(C)C)[C@H]2O)[C@](C)(O)C[C@@H](C)CN(C)[C@H](C)[C@@H](O)[C@]1(C)O", "> 128 µg/mL"],
  ["C[C@H]1COc2c(N3CCN(C)CC3)c(F)cc3c(=O)c(C(=O)O)cn1c23 [levofloxacin, Levofloxacin hydrochloride]", "0.06 µg/mL"],
  ["C[C@H]1CC[C@@]2(O)C(C)(C)[C@@H]3CC[C@@]2(C)[C@H]1C3 (stereo in doubt)", "64 µg/mL"]
]}

Request: If you can, please state the reported MIC value of CC1(C)S[C@@H]2[C@H](NC(=O)Cc3ccccc3)C(=O)N2[C@H]1C(=O)O [penicillin, Benzylpenicillin sodium] .
Result: 0.125 µg/mL

###

Kindly supply the reported MIC values for the records listed here.
# Tested on: Enterococcus faecium
# assay: in vitro bacteriostatic activity, agar dilution MIC
# Assay type: cell-based
# assay_setup: Enterococcus faecium, Enterococcus faecium 12-10; read-out: MIC
Counter-ions that a name gives are not always drawn.

Batch request: MIC per item, same order as input.
1. C[C@H]1COc2c(N3CCN(C)CC3)c(F)cc3c(=O)c(C(=O)O)cn1c23 [levofloxacin, Levofloxacin hydrochloride]
2. CC[C@H]1OC(=O)[C@H](C)[C@@H](O[C@H]2C[C@@](C)(OC)[C@@H](O)[C@H](C)O2)[C@H](C)[C@@H](O[C@@H]2O[C@H](C)C[C@H](N(C)C)[C@H]2O)[C@](C)(O)C[C@@H](C)CN(C)[C@H](C)[C@@H](O)[C@]1(C)O
3. CC1(C)S[C@@H]2[C@H](NC(=O)Cc3ccccc3)C(=O)N2[C@H]1C(=O)O [penicillin, Benzylpenicillin sodium]
4. C[C@H]1CC[C@@]2(O)C(C)(C)[C@@H]3CC[C@@]2(C)[C@H]1C3 (stereo in doubt)

Result:
1: 32 µg/mL; 2: > 128 µg/mL; 3: > 128 µg/mL; 4: 32 µg/mL

Value source: patent EP2826473A1
